Data credit: patent US20190048016A1

target: SIRT1 (Homo sapiens, UniProt Q96EB6); test: Trp mass spectrometry assay of SIRT1 activation (deacetylation of Ac-R-H-K-K(Ac)-W-NH2 peptide, OAADPR formation); type: biochemical; settings: 25 min; Trp peptide 0.5 μM, 120 μM βNAD+, 10 nM SIRT1, 25 min, 25° C.; read-out: TRP MAX RESP (percent maximum fold activation relative to control = 100%)
Sequence (Q96EB6 whole entry): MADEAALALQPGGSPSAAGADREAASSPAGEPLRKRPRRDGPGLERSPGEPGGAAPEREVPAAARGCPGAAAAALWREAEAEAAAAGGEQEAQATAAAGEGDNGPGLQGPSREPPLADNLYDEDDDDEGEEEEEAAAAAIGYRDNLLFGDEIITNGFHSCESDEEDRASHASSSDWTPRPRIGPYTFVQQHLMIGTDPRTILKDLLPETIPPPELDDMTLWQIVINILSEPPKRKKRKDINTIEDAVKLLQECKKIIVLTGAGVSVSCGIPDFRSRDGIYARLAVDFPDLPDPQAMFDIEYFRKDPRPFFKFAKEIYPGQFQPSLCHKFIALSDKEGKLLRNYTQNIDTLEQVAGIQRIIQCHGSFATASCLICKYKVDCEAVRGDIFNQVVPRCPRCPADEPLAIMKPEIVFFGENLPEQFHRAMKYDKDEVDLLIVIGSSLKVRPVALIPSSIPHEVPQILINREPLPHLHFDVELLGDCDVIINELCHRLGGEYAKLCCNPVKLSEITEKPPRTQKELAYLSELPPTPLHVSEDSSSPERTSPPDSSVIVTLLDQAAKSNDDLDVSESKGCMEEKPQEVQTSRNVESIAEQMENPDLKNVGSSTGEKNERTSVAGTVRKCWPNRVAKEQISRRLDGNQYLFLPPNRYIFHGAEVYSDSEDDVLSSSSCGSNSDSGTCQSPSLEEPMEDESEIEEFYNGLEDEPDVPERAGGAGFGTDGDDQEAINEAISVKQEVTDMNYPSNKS
Measured Quantity: Emax

Here's what some known entries look like.
O=C(Nc1cccnc1)c1cc2c(nc1N1CCCC(C(F)(F)F)C1)N[C@H]1CCCN2C1 (single isomer, unassigned); ≤ 150%
Cc1ccc2c(NC(=O)N3c4nc(C(=O)N[C@H](C)C(F)(F)F)cc(C)c4N4CCC[C@H]3C4)n[nH]c2n1; ≥ 150%
Cc1cc(-c2ccc3c(n2)N(C(=O)Nc2cnccn2)[C@H]2CCCN3C2)ccn1; ≥ 150%
Cc1cc(-c2ccc3c(n2)N(C(=O)Nc2ccncn2)[C@H]2CCCN3C2)ccn1; ≥ 150%
O=C(Nc1ccc(OC[C@H](O)CO)cn1)N1c2nc(-c3cccc(C(F)(F)F)c3)c(Cl)cc2N2CCC[C@H]1C2; ≥ 150%
O=C(Nc1cncnc1)N1c2nc(-c3cncc(C(F)(F)F)c3)ccc2N2CCC[C@H]1C2; ≥ 150%

Lab note: next compound to report on.
Qu. # input compound: "O=C(Nc1ncc(OC[C@@H](O)CO)cn1)N1c2nc(-c3cccc(C(F)(F)F)c3)c(Cl)cc2N2CCC[C@H]1C2" ; wanted: its Emax
Ans. ≥ 150%

----------
target: UniProtKB Q96EB6; assay: Trp mass spectrometry assay of SIRT1 activation (deacetylation of Ac-R-H-K-K(Ac)-W-NH2 peptide, OAADPR formation); type: biochemical; settings: 25 min; Trp peptide 0.5 μM, 120 μM βNAD+, 10 nM SIRT1, 25 min, 25° C.; read-out: TRP MAX RESP (percent maximum fold activation relative to control = 100%)
Item-by-item account of Emax

Here's what some known entries look like.
Cc1cc(C(=O)N[C@H](C)C(F)(F)F)nc2c1N1CCC[C@@H](C1)N2C(=O)Nc1ccc(OC[C@@H](O)CO)cn1; ≥ 150%
Cc1cc(-c2ccc3c(n2)N(C(=O)Nc2cnn(C)c2)[C@H]2CCCN3C2)ccn1; ≥ 150%

Qu. # input compound: "Cc1ncc(-c2ccnc(NC(=O)N3c4nc(C(=O)N[C@H](C)C(F)(F)F)c(Cl)cc4N4CCC[C@H]3C4)c2)o1" ; wanted: its Emax
Ans. ≥ 150%

Qu. # input compound: "O=C(Nc1cnc(OC[C@@H](O)CO)nc1)N1c2nc(-c3cccc(C(F)(F)F)c3)c(Cl)cc2N2CCC[C@H]1C2" ; wanted: its Emax
Ans. ≥ 150%

Qu. # input compound: "O=C(Nc1ncc(OC[C@H](O)CO)cn1)N1c2nc(-c3cccc(C(F)(F)F)c3)c(Cl)cc2N2CCC[C@H]1C2" ; wanted: its Emax
Ans. ≥ 150%

Qu. # input compound: O=C(Nc1cnccn1)N1c2nc(N3CCC[C@H](C(F)(F)F)C3)ccc2N2CCC[C@H]1C2 (single isomer, unassigned) ; wanted: its Emax
Ans. ≥ 150%

Qu. # input compound: "O=C(Nc1cnccn1)N1c2nc(-c3ccnc(C(F)(F)F)c3)ccc2N2CCC[C@H]1C2" ; wanted: its Emax
Ans. ≥ 150%
